- experiment.notes: chemical genetic growth profiling, strain panel (AID 1159580);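 note: tested at 20 µM; growth read once vehicle control cultures reached saturation at 30 °C; 1 = growth at the plate median or of vehicle wells; lower values mean less growth of the strain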
- assay.conditions: S. cerevisiae deletion strains, growth OD, locus YLR113W, strain HOG1, active compounds read low
About 2,000 (36%) of roughly 5,500 compounds were called active. Not shown: some 18% with an inconclusive outcome. This is one part of the list.
Kindly state normalized growth for each of the entries shown.
Give bare numbers.

Batch request: normalized growth for each of the following compounds.
1. C=CCc1ccc2c(c1)OCO2
2. CN=C(NC#N)NCCSCc1nc[nH]c1C
3. O=c1ccc2ccccc2o1

Result:
1. 1.03
2. 1.03
3. 0.999

Take each entry in turn and give its normalized growth.
1. COc1cc2c(cc1OC)C(=O)C(CC1CCN(Cc3ccccc3)CC1)C2 (configuration not stated)
2. COc1ccc2cc1Oc1ccc(cc1)C[C@H]1c3c(cc4c(c3Oc3cc5c(cc3OC)CCN(C)[C@@H]5C2)OCO4)CCN1C
3. C=CC1=C(C(=O)O)N2C(=O)[C@@H](NC(=O)/C(=N/O)c3csc(N)n3)[C@H]2SC1
4. O=C(CCN1CCCCC1)c1ccc(-c2ccccc2)cc1
5. Cc1ccc(C(=O)C(C)CN2CCCCC2)cc1 (configuration not stated)

Result:
1: 1.05; 2: 1.07; 3: 1.02; 4: 0.642; 5: 1.01
